System: A2780Cis cisplatin resistant ovarian cancer cells
Experiment: Trypan blue assay, A2780Cis
Assay type: cell-based
Conditions: Trypan blue, 72 hours treatment; read-out: In vitro cytotoxicity IC50, A2780Cis
reported_property: IC50

[[record]]
compound = "N.N.[Cl][Pt][Cl] [Cisplatin]"
reported_property = "IC50"
result_value = "> 25 µM"


====

Assay: MTT assay (in vitro cytotoxicity), HeK-293
Type: cell-based
Conditions: human, HEK-293 (normal) embryonic kidney cells, 48 h incubation, mean ± SD of three experiments
reported_property: IC50 at 48 h (µM)

[[record]]
compound = "S=P(c1ccccc1)(c1ccccc1)c1cccc[c]1[Au][PH]12CN3CN(CN(C3)C1)C2 [Compound 1, [Au(PTA){κC-2-C6H4P(S)Ph2}]]"
result_value = 0.38

[[record]]
compound = "S=P(c1ccccc1)(c1ccccc1)c1cccc[c]1[Au][P+](c1ccccc1)(c1ccccc1)c1ccccc1 [Compound 2, [Au(PPh3){κC-2-C6H4P(S)Ph2}]]"
result_value = 5.81

